Experiment: yeast display, Sf9 membrane polyspecificity reagent, FACS + sequencing; frameworks hold sequencing errors
PROPERTY MEASURED: polyreactivity (PSR sort gate)

QVQLVESGGGLVKAGGSLRISCAASGFTFVSYSKGWYRQAPGKERELVADISSGVSTNYADSVKGRFTISRDNAKNTVYLQMNSLNPEDTAVYYCAAYGTKWGRGFYITGYGYWGQGTQVTVSS
low polyreactivity
QVQLVESGGGLVQAGGSLRLSCAASGLIFYWYAMGWYRQAPGKERELVAAITWSGGITYYADSVKGRFTISRDNAKNTVYLQMNSLKPEDTAVYYCAADDDYGDVTYDYWGQGTQVTVSS
low polyreactivity
QVQLVESGGGLVQAGGSLRLSCAASGRIFGGYVMGWYRQAPGKERELVAAISRRGGSTYYADSVKGRFTISRDNAKNTVYLQMNSLKPEDTAVYYCNVASFSYSYKFDYWGQGTQVTVSS
high polyreactivity
QVQLVESGGGLVQAGGSLRLSCAASGSISASYAMGWYRQAPGKERELVAAITSGGSTYYADSVKGRFTISRDNAKNTVYLQMNSLKPEDTAVYYCAKRPKRTYYPHIGYDYWGQGTQVTVSS
low polyreactivity
QVQLVESGGGLVQAGGSLRLSCAASGHTFYYKALGWYTQAPGKEREFVATITESGTSTYYADSVKGRCTLSRDNAKNTVYLQMKSLKPEDTAGYYCAAQYWYVGGIALYDYWGQGTQVTVSS
low polyreactivity
QVQLVESGGALVQAGGSLRLSCAASGLIFYKYAMGWYRQAPGKERELVASISTGGGSTYYADSVKGRFTISRDNAKNTVYLQMNSLKPEDTAVYYCAARWWRRFRGSHSLYDYWGQGTLVTVSS
high polyreactivity
QVQLVESGGGLVQAGGSLHLSCAASGFTFDGYTMGWYRQAPGKERELVATITTGGSTYYADSVKGRFTISRDNAKNTVYLQMNSLKPEDTAVYYCAADYRGVPYIKWPKDFEYWGQGTQVTVSS
low polyreactivity
QVQLVESGGGLVHAGGSLRLSCAASGFILYSYAMGWYRQAPGKERELVAAINSTGSTYYADSVKGRFTISRDNAKNTVYLQMNSLKPEDTAFYYCATDPWYQTDLSYDTPYYYWGQGKQVTVSS
low polyreactivity
QVQLVESGGGLVQAGGSLRLSCAASGIIFYGYAMGWYRQAPGKERELVATISTGGRTNYADSVKGRFTISRDNAKNTVYLQMNSLKPEDTAVYYCAARSFWTYRSGGPSDYYYWGQGTQVTVSS
high polyreactivity
QVQLVESGGGLVQAGGSLRLSCAASGRTFKYYAMGWYRQAPGKERELVATITWSGTSTNYADSVKGRFTISRDNAKNTVYLQMNSLKPEDTAVYYCAARSKRRNYDYWGQGTQVTVSS
high polyreactivity
QVQLVESGGGLVQAGGSLRLSCAASGSIFYPYAMGWYRQAPGKERELVATISSGGRTNYADSVKGRFTISRDNAKNTVYLQMNSLKPEDTAVYYCAKDRYPTSWWFRRRDYWGQGTQVTVSS
high polyreactivity

* * *

Experiment: yeast display, Sf9 membrane polyspecificity reagent, FACS + sequencing; frameworks hold sequencing errors
PROPERTY MEASURED: polyreactivity (PSR sort gate)

QVQLVESGGGLVQAGGSLRLICAASGRIFGYYAMGWYRQAPGKERELVAAISRAGSTYYADSVKGRFTISRDNAKNTVSLQMNSLKPEDTAVYYCAAVRSVQRHYTEMYYWGQVTQVTVSS
high polyreactivity
QVQLVESGGGLVQAGGSLSLSCAASGRNFLRNAMGWYRKAPGKERELVAAIKSGGNTYYADSVKGRFTISRDNAKITVYLQMNSLKPEYTAVYYCADRQYGFASYRMDYWGHGTQVTVSS
high polyreactivity
QVQLVESGGGLDQAGGSLRLSCAASGITFRYYAMGWYRQAPGKERELVATISRGVRTNYADSVKGRFTISRDNAKNTVYLQMNSLKPEDTAVYYCNADYASARRYDYWGQGTQVTVSS
high polyreactivity

* * *

Test: yeast display, Sf9 membrane polyspecificity reagent, FACS + sequencing; frameworks hold sequencing errors
PROPERTY MEASURED: polyreactivity (PSR sort gate)

QVQLVESGGGLVQAGVSLRLICAASGSIFITNFMGWYRQAPGKERELVAVISASGGSTYYADSVKGRFTISRDNAKNNVYLQMNSMKPEDTAVYYCARTQRRYSYGQMGYWGQGTQVTVSS
high polyreactivity
QVQLVESGGGLVQAGGSLRLSCAASGSTFRWYAMGWYRQAPGTERELVAAISVSTGSTYYADSVKGRFTISRDNAKNTVYVQMNTLKPEDTGVYYCNKVYGWRQFDYWGQGTQVTVSS
high polyreactivity
QVQLVESGGGLVQAGGSLRLSCAASGRIFFDYAMGWYRQAPGKERELVAVITSSGSSTYYADSVKGRFTISRDNAKNTVYLQMNSLKPEDTAVYYCNAARLYSGLWYGYDYWGQGTQVTVSS
high polyreactivity
QVQLVESGGGLVQAGGSLRLSCAASGNIFETNAMGWYRQAPGKERELVAAITRSGGSTYYADSVKGRFTISRDNAKNTVYLQMNSLKPEDTAVYYCAYYPYGYDYWGQGTQVTVSS
high polyreactivity
QVQLVESGRGLVQAGGSLRLSCAASGRIFRSYAMGWYIPAPGKERELFAAISRSGGSTYYADSVKGRFTISRDNGKNTVYLQMNSLKPEDTAVYYCASRYSLGTNSKFFAYGYWGQGTQVNVSS
high polyreactivity
QVQLVESGGGLVQAGGSLRLSCAASGSIFPGYAMGWYRQAPGKERELVAGITWSDARTYYADSVKGLFTISRDNAKNTVYLQMNSLKPEDTAVYYCAADYYYYERDYWGQGTQVTVSS
low polyreactivity
QVQLVESGGGLLQAGGSLRLSCAASGFIFRRNAMGWYIQAPGKEREFVASISKSSDLTYYADSVKGRFRISRDNAKNTVYLQMNSLKPEVTAVYYCAAKVRQWRHGSYSSQYDYWGQGTQVTVSS
high polyreactivity
QVQLVESGGGLVQAGGSLRLSCAASGFTFYYNAMGWYRQAPGKERELVAAISTGGSTYYADSVKGRFTISRDNAKNTVYLQMNSLKPEDTAVYYCAAKTYGRRWSYYYWGQGTQVTVSS
high polyreactivity
QVQLVESGGGLVHAGGSLRLSSAASGRISLSNAMRWYTQAPGKETEFVAAITKRSDRTYYADSVKGRFTNSRDNAKNPVYLQMNSLKPEETAVYYCGAKPLFGTRDDYWGQGTQVTVSS
low polyreactivity
QVQLVESGGGLVQAGGSLRLSCAASGNIFTGNAMGWYRQAPGKERELVAAISSGGGSTYYADSVKGRFTISRDNAKNTVYLQMNSLKPEDTAVYYCAASRVRYSYGYPYYYWGQGTQVTVSS
high polyreactivity
QVQLVESGGGLVQAGGSLRLSCAASGRTFIFYAMGWYRQAPGKERELVAAITYSGTSTYYADSVKGRFTISRDNAKNTVYLQMNSLKPEDTAVYYCASRPTPYRDDADEYWGQGTQVTVSS
low polyreactivity

* * *

Experiment: yeast display, Sf9 membrane polyspecificity reagent, FACS + sequencing; frameworks hold sequencing errors
PROPERTY MEASURED: polyreactivity (PSR sort gate)

QVQLVESGGGLVQAGGSLRLSCAASGSIFGYYTMGWYRQAPGKERELVATITSGGSTYYADSVKGRFTISRDNAKNTVYLQMNSLKPEDTAVYYCNADWYWRVYWGQGTQVTVSS
high polyreactivity
QVQLVESGGGLVQAGGSLRLSCAASGSIFNWYAMGWYIQAPGKERELVAAISSSGSTNYADSVKGRFTISRDNAKNTVYLQMNSLKPEDTEVYYCNADEYYLNNYNYGYWGQGTQVTVSS
low polyreactivity
QVQLVESGGGLVQAGGSLRLSCAASGFIFTYYAMGWYRQAPGKERELVAVISWSGGTTYYADSVKGRFTISRDNAKNTVYLQMNSLKPEDTAVYYCAAGKVSFWLVFEYDYWGQGTQVTVSS
low polyreactivity
QVQLVESVGGLVQAGGSLRLSCAASGFTFGRYAMGWYRQAPGKESELVATITRTGSTNYADSVKGRFTISRDNAKNTVYLQMNSLKPEDTAVYYCAKDWAYRRHWVGFYYWGLGTQVTVSS
low polyreactivity
QVQLVESGGCLVQAGGSLRLIRDASGFIIRPYAMGWYRQAPGKEREFVAAITGGGSTYYADSVKGRFTISRDNAKNTVYLQMNSLKPEDTAVYYCNADRRRRSGGFAGWHFQRKDYWGQGTQVTVSS
low polyreactivity
QVQIEESGGGLVQAGGSLRLSCAASASIFYPNAMGWYRQAPVKEREFVAAITRNGDSTYYADSVKGRFTISRDNAKNTVYLQMNSLKPEDTAVYYCNTDGQGIYSYNKDLSWISGYDYWGQGTQVTVSS
low polyreactivity
QVQLVESGGGLVQAGGSLRLSCAASGSTLSYNAMGWYRQAPGKERELVAAISGRGGSTSYADSVKGRFTISRDNAKNTVYLQMNSLKPEDTAVYYCNRYSRSAYEWEYYSWGQGTQVTVSS
high polyreactivity
QVQLVESGGGLVQAGGSLRLSCAASGRTSYYAMGWYRQAPGKERELVAAINSGDSTTYADSVKGRFTISRDNAKNTVYLQMNSLKPEDTAVYYCATALYDWYSLEFDYWGQGTQVTVSS
low polyreactivity
QVQLVESGGGLVQAGGSLRLSCAASGTFTSNAMGWYRQAPGKERELVAVITGGGRTNYADSVKGRFTISRDNAKNTVYLQMNSLKPEDTAVYYCAAEVYLPYYERYDYWGQGTQVTVSS
low polyreactivity
QVQLVESGGGLVQAGGSLRLSCAASGSIFASNAMGWYRQAPGKEREFVAAITWRTDRTYYADSVKGRFTISRDNAKNTVYLQMNSLKPEDNAVYYCAADTWFDRFYYWGQGTQVTVSS
high polyreactivity
QVPLVESGGGLVQAGGSLRLSCAASGRIFYNYAMGWYRQAPGKERELVAAISGSGGSTYYADSVKGRFTISRDNAKNTVYLQMNSLKPEDSSVYYCSTSGPQYYSRNFDYWGQGTQVTVSS
low polyreactivity
